reverse-splicing fitness for assorted variants
B1: Azoarcus group I ribozyme (parent)
chain: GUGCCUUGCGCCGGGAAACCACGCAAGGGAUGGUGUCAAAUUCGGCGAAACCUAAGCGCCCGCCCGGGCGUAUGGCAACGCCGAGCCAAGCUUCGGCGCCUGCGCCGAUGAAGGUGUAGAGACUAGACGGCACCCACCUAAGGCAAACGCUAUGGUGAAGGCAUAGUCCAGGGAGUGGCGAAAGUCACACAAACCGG

Variants of: B1
TEST DETAILS: reverse-splicing fitness (ratio to wild type); higher = more active; in vitro selection; Mg2+ level not given

In [3]: df
Out[3]:
                        mutation_spec   result
0  C82U A111U A145U C150G C169G U176G  0.00587
1  C82G A111C A120G A145G C169G U176G  0.00514
2        C82G A145U C150U C169G U176C   0.0131

Ask: Specify reported reverse-splicing fitness for the variant shown: A120C C150A U176C
Result: 0.195

Ask: // Input: C82G A111U A120C C150G C169G . Output its reverse-splicing fitness only.
Result: 0.00753

Ask: Retrieve reverse-splicing fitness measured for C82A A120G C150A and print it.
Result: 0.0107
